Numbers sourced from PubChem BioAssay (Tox21).

biological target: Cytochrome P450 1A2 (Homo sapiens) (UniProt P05177); experiment: Cytochrome P450 Family 1 Subfamily A Member 2 (CYP1A2) small molecule antagonists: luciferase reporter qHTS assay (AID 1671199); conditions: P450-Glo CYP1A2 enzyme, luciferin luminescence, 1 h; series mostly up to 115 µM; further: nearly all actives have a fitted effect of over 50% in size; further: potency means the concentration at half of the fitted maximal effect
Sequence (P05177 whole entry, looked up): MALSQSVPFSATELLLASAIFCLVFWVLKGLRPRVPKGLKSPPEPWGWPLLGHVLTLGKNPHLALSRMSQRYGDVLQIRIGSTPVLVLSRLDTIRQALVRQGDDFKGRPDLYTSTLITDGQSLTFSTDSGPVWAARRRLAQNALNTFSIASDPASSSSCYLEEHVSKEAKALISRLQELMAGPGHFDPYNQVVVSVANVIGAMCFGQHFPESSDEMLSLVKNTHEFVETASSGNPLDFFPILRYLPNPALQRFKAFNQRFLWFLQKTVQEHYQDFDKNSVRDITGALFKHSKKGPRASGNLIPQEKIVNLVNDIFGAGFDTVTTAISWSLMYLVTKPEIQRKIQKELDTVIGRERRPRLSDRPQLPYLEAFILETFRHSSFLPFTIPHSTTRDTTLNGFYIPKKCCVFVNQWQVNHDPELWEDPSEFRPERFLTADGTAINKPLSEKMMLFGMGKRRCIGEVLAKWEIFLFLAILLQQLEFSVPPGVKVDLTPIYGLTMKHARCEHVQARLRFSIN
Results filed as inconclusive are left out. Activity calls are given as the source filed them. The call rests on the fitted dose curve; in most records, active means well fitted inhibition curve with a large enough effect in the repeat runs; inconclusive means weak or mixed curves; inactive means no such curve, though single readings can be large or run the other way.
attribute-measured: Potency

Some molecules with recorded Potency:
CCOC(=O)c1ccc(N(C)C)cc1 : 5.03 µM (active)
CCOc1ccccc1OCCN[C@H](C)Cc1ccc(OC)c(S(N)(=O)=O)c1 : inactive
O=P(O)(O)C(O)(Cc1cccnc1)P(=O)(O)O : inactive
CCCCCCC(O)CO (configuration not stated) : inactive

Challenge: Using known records, supply Potency for `NNC(=O)OCc1ccccc1`
Response given: 15.9 µM (active)

Challenge: Using known records, supply Potency for `C/C(Cl)=C/CCl`
Response given: inactive

Challenge: Using known records, supply Potency for `CN(C)CCc1c[nH]c2ccc(CS(=O)(=O)N3CCCC3)cc12`
Response given: inactive

Challenge: Using known records, supply Potency for `CC(C)(C)c1ccc(C(=O)CCCCl)cc1`
Response given: 12.3 µM (active)

Challenge: Using known records, supply Potency for `CCCc1ncc(C(=O)O)s1`
Response given: inactive
